# assay.remarks: Cytotoxicity against green monkey Vero cells
# Format: toxicity, cell-based
# measurement.setup: green monkey (Chlorocebus sabaeus)
readout: IC50

// lookup IC50 for "COc1ccc2[nH]c3c(OCc4ccccc4)cc(C)cc3c2c1"
> 128 µM

====

# Tested on: Klebsiella pneumoniae
# assay.remarks: Antibacterial activity against Klebsiella pneumoniae assessed as inhibition of bacterial growth by broth microdilution method
# Type: functional
readout: MIC90 (µg/mL)
Please state the figure in µg/mL; there is no need to write the unit.

{"columns": ["compound", "observed.value"],
 "data": [
  ["CC(C)=CCCC1(C)C=Cc2c(c(C)cc3c2[nH]c2cc(O)ccc23)O1 (centres undefined)", 3.12],
  ["COc1cc2c(cc1O)[nH]c1c3c(c(C)cc12)OC(C)(C)C=C3", 3.12],
  ["NC[C@H]1O[C@H](O[C@H]2[C@H](O)[C@@H](O[C@H]3O[C@H](CO)[C@@H](O)[C@H](N)[C@H]3O)[C@H](N)C[C@@H]2N)[C@H](O)[C@@H](O)[C@@H]1O", 12.5]
]}

Which MIC90 reading was recorded for the compound "Cc1cc2c([nH]c3ccc(O)cc32)c2c1OC(C)(C)C=C2" ?
3.12

Each recorded value in this set is attributed to ChEMBL document CHEMBL5532637.
